Field: PBM binding z-score. Provide a value for each of the sequences that follow.
# Test system: LXRa:RXRa (NR concentration 270 nM, RXRa partner concentration 90 nM)
# Assay Notes: PBM binding z-score (relative to random genomic background probes); higher = stronger binding; sequences stand for … in GC…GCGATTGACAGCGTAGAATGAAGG
Write the value as a bare number.

Which PBM binding z-score is reported with LXRa:RXRa (NR concentration 270 nM, RXRa partner concentration 90 nM) for this entry: TGTAGTTGGTCAAAGGTCACACACTCGAAATGCG ?
5.9

Which PBM binding z-score is reported with LXRa:RXRa (NR concentration 270 nM, RXRa partner concentration 90 nM) for this entry: CGAACGAGGGCATGAGTTGATAGCGAATGCCGAT ?
0.274

Which PBM binding z-score is reported with LXRa:RXRa (NR concentration 270 nM, RXRa partner concentration 90 nM) for this entry: CCTACTGGGCCATTCAGAGGTCATTTATCATATG ?
4.36

Which PBM binding z-score is reported with LXRa:RXRa (NR concentration 270 nM, RXRa partner concentration 90 nM) for this entry: GATACAGGGTCAGCTAGTGGCCAGAGTATGGAAA ?
2.31
